Ref: the supplement of paper PMC9170038

tested on: MS2 coat protein; experiment: apparent KD of MS2 coat protein; designed switch direction (-1 OFF switch, 1 ON switch): -1; higher = weaker reporter binding; conditions: input ligand: microRNA oligo, concentration not stated
result-type: apparent KD of MS2 coat protein (nM)
Express your answer in nM, writing the number without its unit.

[
  {
    "sequence-code": "CUAAAUCAUGUAGGAUAUGCGUGGCAAAGCUAUGCAGAAGGACAUGAGGAUCACCCAUGUGCUUCCGUCUGCGUACAGACGGUA [Mat - Exclusion NG 1 - Mod of JL - D21] (Eterna round: R96, puzzle: Exclusion NG 1)",
    "assay-system": "MS2 coat protein",
    "result-type": "apparent KD of MS2 coat protein",
    "output-unit": "nM",
    "observed-measurement": 79.2
  }
]

Here is the next item to consider.
INPUT: Return reported apparent KD of MS2 coat protein; argument: AUAAAUCAUGUAGGAUAUGCGUGGCGAAGCUAUGCAGAAGGACAUGAGGAUCACCCAUGUUCUAGCGUCUGAGUACAGAUGCAA [Mat - Exclusion NG 1 - Mod of JL - D3] (Eterna round: R96, puzzle: Exclusion NG 1)
OUTPUT: 18.5
